Tested on: foxtail, giant (giant foxtail, Setaria faberii)
Assay: Test C greenhouse herbicide test, pre- and postemergence
Assay type: in vivo
Settings: Postemergence, 250 g ai/ha; scale 0 to 100, 0 no effect, 100 complete control; 13 to 15 d
Cut-off 80 on Plant response rating, Foxtail, Giant, inclusive. At or above means 1.0; below means 0.0.

These recorded examples may help you get a feel for the data.
Check this compound for Plant response rating, Foxtail, Giant at or above 80: `CCc1sc2ccc(C)cc2c1-c1c(O)c(C)nn(C)c1=O` 1.0

Please indicate if the recorded Plant response rating, Foxtail, Giant for `Cc1ccc2ccccc2c1-c1c(O)c(Br)nn(C)c1=O` meets or exceeds 80. 1.0

Hi team, for `CC(=O)Oc1c(C)nn(C)c(=O)c1-c1c(C)cc(C)c2ccccc12` , is the recorded Plant response rating, Foxtail, Giant at or above 80? 0.0

With those in mind, consider the next compound.
Textbook exercise: given the entry `COC(=O)Oc1c(C)nn(C)c(=O)c1-c1ccc(F)c2ccccc12` , state whether its Plant response rating, Foxtail, Giant is greater than or equal to 80. 0.0
